# Study target: T1, human PD-L1, expressed on CHO cells (human, UniProt Q9NZQ7 19-290)
# T1 construct: Full-length surface expression construct transduced by lentivirus into CHO cells; also called huPD-L1; CD274
# T1 sequence (Q9NZQ7 19-290): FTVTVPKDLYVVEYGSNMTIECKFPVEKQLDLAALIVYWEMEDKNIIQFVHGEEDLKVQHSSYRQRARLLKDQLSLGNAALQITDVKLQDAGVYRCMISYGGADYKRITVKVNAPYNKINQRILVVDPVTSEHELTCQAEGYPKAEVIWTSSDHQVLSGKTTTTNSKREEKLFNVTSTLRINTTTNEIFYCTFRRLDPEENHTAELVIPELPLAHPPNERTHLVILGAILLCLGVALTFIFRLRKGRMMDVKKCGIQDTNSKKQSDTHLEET
# Method summary: flow cytometry on CHO cells stably expressing human PD-L1; PE anti-human Fc
Each entry below carries its recorded MFI at 33.3 nM.
Field: numeric (MFI). Do not append units.

Reference set (5 entries):
| Binder | Unit of measurement | MFI at 33.3 nM |
| --- | --- | --- |
| variant CD80 IgV-Fc E35D/M42V/M47V/E52D/L85Q (Fc fusion, not shown: small tags and cut ends; a dimerising Fc or GST, Fc fusion of the variant IgV) VIHVTKEVKEVATLSCGHNVSVEELAQTRIYWQKDKKMVLTVMSGDVNIWPDYKNRTIFDITNNLSIVILALRPSDEGTYECVVQKYEKDAFKREHLAEVTLSVKAD | MFI | 11900 |
| variant CD80 IgV-Fc E35D/D46E/M47V/V68M/D90G/K93E (Fc fusion, not shown: small tags and cut ends; a dimerising Fc or GST, Fc fusion of the variant IgV) VIHVTKEVKEVATLSCGHNVSVEELAQTRIYWQKDKKMVLTMMSGEVNIWPEYKNRTIFDITNNLSIMILALRPSDEGTYECVVLKYEKGAFEREHLAEVTLSVKAD | MFI | 71900 |
| variant CD80 IgV-Fc E35D/M47V/T62A/A71D/K93E (Fc fusion, not shown: small tags and cut ends; a dimerising Fc or GST, Fc fusion of the variant IgV) VIHVTKEVKEVATLSCGHNVSVEELAQTRIYWQKDKKMVLTMMSGDVNIWPEYKNRTIFDIANNLSIVILDLRPSDEGTYECVVLKYEKDAFEREHLAEVTLSVKAD | MFI | 693 |
| variant CD80 IgV-Fc E35D/M38T/D46E/M47V/N48S (Fc fusion, not shown: small tags and cut ends; a dimerising Fc or GST, Fc fusion of the variant IgV) VIHVTKEVKEVATLSCGHNVSVEELAQTRIYWQKDKKTVLTMMSGEVSIWPEYKNRTIFDITNNLSIVILALRPSDEGTYECVVLKYEKDAFKREHLAEVTLSVKAD | MFI | 19400 |
| variant CD80 IgV-Fc E35D/M43I/M47V/K89N (Fc fusion, not shown: small tags and cut ends; a dimerising Fc or GST, Fc fusion of the variant IgV) VIHVTKEVKEVATLSCGHNVSVEELAQTRIYWQKDKKMVLTMISGDVNIWPEYKNRTIFDITNNLSIVILALRPSDEGTYECVVLKYENDAFKREHLAEVTLSVKAD | MFI | 19200 |

Req: Find the recorded MFI at 33.3 nM belonging to variant CD80 IgV-Fc E35D/M47L/A71G/L85M/F92Y (Fc fusion, not shown: small tags and cut ends; a dimerising Fc or GST, Fc fusion of the variant IgV) VIHVTKEVKEVATLSCGHNVSVEELAQTRIYWQKDKKMVLTMMSGDLNIWPEYKNRTIFDITNNLSIVILGLRPSDEGTYECVVMKYEKDAYKREHLAEVTLSVKAD and report it.
Resp: 46700

Req: Find the recorded MFI at 33.3 nM belonging to variant CD80 IgV-Fc E35D/M38T/M43V/M47V/N48R/L85Q (Fc fusion, not shown: small tags and cut ends; a dimerising Fc or GST, Fc fusion of the variant IgV) VIHVTKEVKEVATLSCGHNVSVEELAQTRIYWQKDKKTVLTMVSGDVRIWPEYKNRTIFDITNNLSIVILALRPSDEGTYECVVQKYEKDAFKREHLAEVTLSVKAD and report it.
Resp: 21800

Req: Find the recorded MFI at 33.3 nM belonging to variant CD80 IgV-Fc Q33L/E35D/M43I/Y53F/T62S/L85Q (Fc fusion, not shown: small tags and cut ends; a dimerising Fc or GST, Fc fusion of the variant IgV) VIHVTKEVKEVATLSCGHNVSVEELAQTRIYWLKDKKMVLTMISGDMNIWPEFKNRTIFDISNNLSIVILALRPSDEGTYECVVQKYEKDAFKREHLAEVTLSVKAD and report it.
Resp: 72100

Req: Find the recorded MFI at 33.3 nM belonging to variant CD80 IgV-Fc Q33R/E35D/M47V/N48K/L85M/F92L (Fc fusion, not shown: small tags and cut ends; a dimerising Fc or GST, Fc fusion of the variant IgV) VIHVTKEVKEVATLSCGHNVSVEELAQTRIYWRKDKKMVLTMMSGDVKIWPEYKNRTIFDITNNLSIVILALRPSDEGTYECVVMKYEKDALKREHLAEVTLSVKAD and report it.
Resp: 21400

FYI, the data here is from patent US20210130436A1.
